test system: Staphylococcus aureus; assay: Antibacterial activity against methicillin-sensitive Staphylococcus aureus after 16 hrs by NCCLS agar dilution method; assay type: functional
For each record, check the reported MIC: if it is below 1 mg/L write Y, else write N.

Known results for compounds:
[[record]]
compound = "NCc1ccc(-c2ccc3c(c2)OC[C@H]2[C@H](CO)OC(=O)N32)cn1"
tested_system = "Staphylococcus aureus"
assigned_class = "N"

[[record]]
compound = "CN1CC(c2ccc(-c3ccc4c(c3)OC[C@H]3[C@H](CO)OC(=O)N43)cn2)OC1=O (stereo partly drawn)"
tested_system = "Staphylococcus aureus"
assigned_class = "Y"

[[record]]
compound = "CCO/N=C(\\C)c1ccc(-c2ccc3c(c2)OC[C@H]2[C@H](CO)OC(=O)N32)cn1"
tested_system = "Staphylococcus aureus"
assigned_class = "N"

[[record]]
compound = "C[C@@H](O)C(=O)c1ccc(-c2ccc3c(c2)OC[C@H]2[C@H](CO)OC(=O)N32)cn1"
tested_system = "Staphylococcus aureus"
assigned_class = "Y"

[[record]]
compound = "O=C1O[C@@H](CO)[C@@H]2COc3cc(-c4ccc(Cn5cncn5)nc4)ccc3N12"
tested_system = "Staphylococcus aureus"
assigned_class = "Y"

[[record]]
compound = "N#Cc1ccc(-c2ccc3c(c2)OC[C@H]2[C@H](CN)OC(=O)N32)cn1"
tested_system = "Staphylococcus aureus"
assigned_class = "N"

[[record]]
compound = "CC(C)N1CCN(c2ccc(-c3ccc4c(c3)OC[C@H]3[C@H](CO)OC(=O)N43)cn2)C(=O)C1"
tested_system = "Staphylococcus aureus"
assigned_class = "N"

[[record]]
compound = "O=C1O[C@@H](CO)[C@@H]2COc3cc(-c4ccc(N5C[C@@H]6CCCN[C@@H]6C5)nc4)ccc3N12"
tested_system = "Staphylococcus aureus"
assigned_class = "N"


In the following, a different compound is considered.
Query :: Dear colleague, could you confirm whether MIC of CC(=O)N1CCN(c2ccc(-c3ccc4c(c3)OC[C@H]3[C@H](CO)OC(=O)N43)cn2)C1=O falls below 1 mg/L? Thanks.
Result :: N
